Where do these numbers come from? They come from ChEMBL document CHEMBL1201862.

system: SK-OV-3; assay: NCI tumour cell line growth inhibition, 48 h
Calls of active or inactive are those of the source. No stated cut-off is given here; in the data, active = GI50 up to about 1.1 µM and inactive = higher.
Each record here notes measured GI50.

**Q:** # query: GI50 of entry "C[C@H](OCc1ccccc1)C(=O)N1CCS(=O)(=O)N2CCC[C@H]2C1=O"
**A:** > 100 µM (inactive)

**Q:** Also check "COc1ccc(-c2cc(O)c3c(C)cc(C)nc3n2)cc1"
**A:** > 100 µM (inactive)

**Q:** Again, but for "Cc1cc2c(cc1-c1cc3c(cc1C)C(C(C)C)=C(O)C(=O)/C3=C\Nc1cccc3c(N)cccc13)/C(=C/Nc1cccc3c(N)cccc13)C(=O)C(O)=C2C(C)C"
**A:** > 100 µM (inactive)

**Q:** Now the compound "O=C(N/N=C(COc1ccc(Cl)cc1)\N=C\c1cccnc1)c1ccncc1"
**A:** > 100 µM (inactive)

**Q:** Subsequent entry: "COc1cc(-c2nnc3n2NC=C(C(=O)O)S3)cc(OC)c1OC"
**A:** > 100 µM (inactive)

**Q:** Input "Cc1cc(S(N)(=O)=O)c(S/C(=N\Nc2ccc([N+](=O)[O-])cc2)c2ccc(Cl)cc2)cc1Cl"
**A:** 1.96 µM (inactive)

**Q:** Would you kindly repeat that for O=[N+]([O-])c1ccc2c(c1)C(N1CCN(CCO)CC1)Cc1ccc(F)cc1S2 (centres undefined) ?
**A:** 17.3 µM (inactive)

**Q:** Repeat for the following compound: COc1cc(CC2c3cc(OC)c(OC)cc3CCN2C)c(Oc2cc3c(cc2OC)-c2c(O)c(OC)cc4c2C(C3)N(C)CC4)cc1OC (centres undefined)
**A:** 41.1 µM (inactive)

**Q:** Moving on to the next compound: "Cc1ccc(O)c(/N=N\c2c(O)cc(S(=O)(=O)O)c3ccccc23)c1"
**A:** 51.4 µM (inactive)
